# target or test system: Acetylcholine receptor subunit delta (Torpedo californica) (UniProt P02718)
# Sequence (whole entry): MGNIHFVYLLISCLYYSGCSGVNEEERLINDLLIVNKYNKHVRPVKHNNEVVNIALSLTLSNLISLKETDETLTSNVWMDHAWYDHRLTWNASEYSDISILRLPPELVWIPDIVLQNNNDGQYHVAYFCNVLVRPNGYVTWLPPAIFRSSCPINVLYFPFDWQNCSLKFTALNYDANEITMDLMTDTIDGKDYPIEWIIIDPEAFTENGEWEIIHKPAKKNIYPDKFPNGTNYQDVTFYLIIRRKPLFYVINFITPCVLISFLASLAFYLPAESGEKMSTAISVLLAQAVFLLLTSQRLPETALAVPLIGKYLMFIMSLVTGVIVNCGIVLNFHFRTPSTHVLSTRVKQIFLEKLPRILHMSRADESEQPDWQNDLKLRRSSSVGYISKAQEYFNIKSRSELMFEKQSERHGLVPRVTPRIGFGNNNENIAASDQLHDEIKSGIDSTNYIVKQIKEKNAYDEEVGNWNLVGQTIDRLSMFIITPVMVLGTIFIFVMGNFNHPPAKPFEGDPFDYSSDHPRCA
# test description: Compound was tested for its binding affinity against nicotinic acetylcholine receptor by fluorimetry assay
# conditions: torpedo fuscomaculata
Just a reminder that ties go to no: only Kd1 strictly below 0.1 µM counts as yes.

INSERT INTO results (compound_structure_string, classification) VALUES
  ('COc1ccc(Cc2nccc3cc(OC)c(OC)cc23)cc1OC', 'no'),
  ('COc1cc2c3cc1Oc1cc(ccc1O)C[C@@H]1c4c(cc(OC)c(O)c4Oc4ccc(cc4)C[C@@H]3N(C)CC2)CC[N+]1(C)C', 'yes'),
  ('CC(=O)OCC[N+](C)(C)C', 'no'),
  ('c1ccc2cnccc2c1', 'no'),
  ('COc1ccc2cc3[n+](cc2c1OC)CCc1cc2c(cc1-3)OCO2', 'no');
